What Max FACS mean fluorescence intensity (MFI) was measured for each of the following?
# subjectOfTest: T1, human BTN3A1 expressed on HEK293 cells (human, UniProt O00481 30-513)
# T1 construct: whole, on cells; also called BTN3A1-expressing HEK293 cells; human BTN3A1-overexpressing cells
# test: flow cytometry, HEK293 cells overexpressing human BTN3A1
Kindly provide the numeric value in MFI only, without the unit symbol.

Max FACS mean fluorescence intensity (MFI) for 17G4-H5L3 (antibody, human IgG1, kappa, V domains shown, Humanized; human IgG1 constant region with L234F/L235E/P331S and human Ckappa; also called 17G4's humanized antibody) VH: EQQLVESGGGLVQPGGSLRLSCAASGFSLNDYYITWVRQAPGKGLEWIGVIYGSSNTVYASWAKGRFTISKTSTMVYLQMNSLRAEDTAVYFCARGYLASSADIWGQGTLVTVSS VL: DQQLTQSPSSLSASVGDRVTITCQSSQSVYNNNRLAWYQQKPGKPPKLLIYDASTLASGVPSRFSGSGSGTDFTLTISSLQPEDVATYYCQTYYSGYIWAFGGGTKVEIKR is 89700

Sample 17G4 (a human-rabbit chimeric antibody, parent) (antibody, human IgG1, kappa, V domains shown, Rabbit variable regions on the human IgG1 constant region with L234F/L235E/P331S (Eu numbering) and human Ckappa) VH: QSLEESGGRLVTPGTPLTLTCTASGFSLNDYYITWVRQAPGKGLEWIGVIYGSSNTVYASWAKGRFTISKTSTMVDLRITSPTTEDTATYFCARGYLASSADIWGPGTLVTVSL VL: QVLTQTPSPVSAAVGGTVTINCQSSQSVYNNNRLAWYQQKPGQPPKLLIYDASTLASGVPSRFKGSGSGTDFTLTISDLECADAATYYCQTYYSGYIWAFGGGTEVVVKR ; Max FACS mean fluorescence intensity (MFI) observed: 98000

Max FACS mean fluorescence intensity (MFI) reported for this binder 20A3-H2L2 (antibody, human IgG1, kappa, V domains shown, Humanized; human IgG1 constant region with L234F/L235E/P331S and human Ckappa; also called 20A3's humanized antibody) VH: EVQLVESGGGLVQPGGSLRLSCAASGFTINNYYMNWVRQAPGKGLEWVSIIYGSDNTYYASWAKGRFTISKDNSKNTVYLQMNSLRAEDTAVYYCVRNLDYSSAYFHIWGQGTLVTVSS VL: DIQLTQSPSSLSASVGDRVTITCQASQSVYNNNRLAWYQQKPGKPPKLLIYEASKLASGVPSRFSGSGSGTDFTLTISSLQPEDVATYYCQGYYSGFIYPFGGGTKVEIKR : 91200
